Data provenance is ChEMBL document CHEMBL1136459.

Exercise: state measured MIC for each of the compounds provided.
- Test system: Moraxella catarrhalis
- Assay text: In vitro antibacterial activity against Moraxella catarrhalis strains 30607 and 30603 (MC).
- Type: functional
The response must be a number in µg/mL with no trailing unit.

Query: Hello, I am looking for reported MIC with Moraxella catarrhalis for O=C(CC(F)(F)F)NC[C@H]1CN(c2ccc(N3CCS(=O)(=O)CC3)c(F)c2)C(=O)O1 . Could you help?
Response: 16

Query: # get_value(readout= MIC, system= Moraxella catarrhalis) for O=C1O[C@@H](CNC(=O)C(F)(F)F)CN1c1ccc(C2CCS(=O)(=O)CC2)c(F)c1
Response: 8

Query: Any idea what MIC came out for O=C(NC[C@H]1CN(c2ccc(N3CCS(=O)(=O)CC3)c(F)c2)C(=O)O1)C1CC1 on Moraxella catarrhalis?
Response: 4

Query: What reported MIC corresponds to CC(=O)NC[C@H]1CN(c2ccc(N3CC[S+]([O-])CC3)c(F)c2)C(=O)O1 on Moraxella catarrhalis?
Response: 4

Query: What is its MIC for Moraxella catarrhalis? Entry: CC(=O)NC[C@H]1CN(c2ccc(N3CCS(=O)(=O)CC3)c(F)c2)C(=O)O1
Response: 4

Query: Notebook: pull reported MIC for Moraxella catarrhalis, entry O=C1O[C@@H](CNC(=O)C(F)(F)F)CN1c1ccc(C2CC[S+]([O-])CC2)c(F)c1 (some centres undefined)
Response: 8
